Some molecules, each annotated with its measured TGI.
- Test system: TK-10 renal
- experimentSummary: NCI tumour cell line growth inhibition, 48 h
Answer in µM, number only, no unit symbol.

Study these solved cases before continuing.
1. CC1C(NNc2ccccc2)Oc2cc3c(cc2C1c1ccccc1O)OCO3 (stereo not given)	18.3
2. COc1cc(C(=O)Nc2cc3c(cc2Oc2cc(C)cc(C)c2)C(=O)N(C)[C@@H](CC(=O)N(C)O)C(=O)N3)c(Br)c(OC)c1OC	0.0264
3. O=C1C=CC(=O)c2c(O)c(N3CCC[C@H]3CO)c(Cl)c(O)c21	5.57

Query :: Please report the recorded TGI for COc1cc2cc(C(=O)N3C[C@H](CCl)c4c3cc(N)c3ccccc43)[nH]c2c(OC)c1OC .
Result :: 10.3

src = PubChem BioAssay (NCI)
